System: Human immunodeficiency virus type 1 integrase (Human immunodeficiency virus 1), Q7ZJM1 [G140S,Q148H]
Assay: Inhibition of HIV-1 integrase G140S/Q148H double mutant strand transfer activity assessed as reduction in viral replication
Below, each entry is listed alongside its reported log10 IP.
All values: base-10 log of IP in nM.

>  <compound>
C[C@H](O)CN1C(=O)c2c3c(c(O)c(=O)n2[C@@]12CC[C@H]1C[C@H]12)C(=O)N(Cc1ccc(F)c(Cl)c1)CC3

>  <log10 IP>
1.43

$$$$

Prompt line: So what's the measured log10 IP for this one? O=C1N[C@]2(CC[C@H]3C[C@H]32)n2c1c1c(c(O)c2=O)C(=O)N(Cc2ccc(F)c(Cl)c2)CC1
Response line: 2.69

Prompt line: So what's the measured log10 IP for this one? N#Cc1cccc2c1[C@]1(CC2)NC(=O)c2c3c(c(O)c(=O)n21)C(=O)N(Cc1ccc(F)c(Cl)c1)CC3
Response line: 1.26

Prompt line: So what's the measured log10 IP for this one? O=C1c2c(c3n(c(=O)c2O)[C@@H](C2CC2)N(C2CC2)C3=O)CCN1Cc1ccc(F)c(Cl)c1
Response line: 3.19

Prompt line: So what's the measured log10 IP for this one? O=C1c2c(c3n(c(=O)c2O)C2(CCC4CC42)N(CCN2C(=O)CCC2=O)C3=O)CCN1Cc1ccc(F)c(Cl)c1 (stereo not given)
Response line: 1.36

---

Below, each entry is listed alongside its reported Vd.
Assay: Volume of distribution in Beagle dog at 0.5 mg/kg, iv or 1 mg/kg, po
Type: ADME, organism-based, Canis lupus familiaris
Conditions: in vivo
Entry rule: numbers only, all in L/kg.

Prompt line: So what's the measured Vd for this one? O=C1c2c(c3n(c(=O)c2O)[C@@H](C2CC2)N(C2CC2)C3=O)CCN1Cc1ccc(F)c(Cl)c1
Response line: 0.7

Prompt line: So what's the measured Vd for this one? O=C1c2c(c3n(c(=O)c2O)C2(CCC4CC42)N(CCN2C(=O)CCC2=O)C3=O)CCN1Cc1ccc(F)c(Cl)c1 (stereo not given)
Response line: 2.1

Prompt line: So what's the measured Vd for this one? N#Cc1cccc2c1[C@]1(CC2)NC(=O)c2c3c(c(O)c(=O)n21)C(=O)N(Cc1ccc(F)c(Cl)c1)CC3
Response line: 0.9

Prompt line: So what's the measured Vd for this one? O=C1N[C@]2(CC[C@H]3C[C@H]32)n2c1c1c(c(O)c2=O)C(=O)N(Cc2ccc(F)c(Cl)c2)CC1
Response line: 0.1

Prompt line: So what's the measured Vd for this one? C[C@H](O)CN1C(=O)c2c3c(c(O)c(=O)n2[C@@]12CC[C@H]1C[C@H]12)C(=O)N(Cc1ccc(F)c(Cl)c1)CC3
Response line: 0.5

---

Below, each entry is listed alongside its reported IP.
System: Human immunodeficiency virus type 1 integrase (Human immunodeficiency virus 1), Q7ZJM1 [Q148R]
Assay: Inhibition of HIV-1 integrase Q148R mutant strand transfer activity assessed as reduction in viral replication
Put your answer as a value accompanied by its unit after it.

Prompt line: So what's the measured IP for this one? O=C1c2c(c3n(c(=O)c2O)C2(CCC4CC42)N(CCN2C(=O)CCC2=O)C3=O)CCN1Cc1ccc(F)c(Cl)c1 (stereo not given)
Response line: 7 nM

Prompt line: So what's the measured IP for this one? C[C@H](O)CN1C(=O)c2c3c(c(O)c(=O)n2[C@@]12CC[C@H]1C[C@H]12)C(=O)N(Cc1ccc(F)c(Cl)c1)CC3
Response line: 10 nM

Prompt line: So what's the measured IP for this one? N#Cc1cccc2c1[C@]1(CC2)NC(=O)c2c3c(c(O)c(=O)n21)C(=O)N(Cc1ccc(F)c(Cl)c1)CC3
Response line: 7 nM

Prompt line: So what's the measured IP for this one? O=C1c2c(c3n(c(=O)c2O)[C@@H](C2CC2)N(C2CC2)C3=O)CCN1Cc1ccc(F)c(Cl)c1
Response line: 1010 nM

Prompt line: So what's the measured IP for this one? O=C1N[C@]2(CC[C@H]3C[C@H]32)n2c1c1c(c(O)c2=O)C(=O)N(Cc2ccc(F)c(Cl)c2)CC1
Response line: 107 nM

---

Experiment: Plasma protein binding in Beagle dog
Format: ADME, cell-free, Canis lupus familiaris
Details: read-out: PPB (converted)
Below, each entry is listed alongside its reported fraction unbound.
Lab note: write the figure by itself, no unit.

>  <molecule>
N#Cc1cccc2c1[C@]1(CC2)NC(=O)c2c3c(c(O)c(=O)n21)C(=O)N(Cc1ccc(F)c(Cl)c1)CC3

>  <fraction unbound>
0.028

$$$$
>  <molecule>
C[C@H](O)CN1C(=O)c2c3c(c(O)c(=O)n2[C@@]12CC[C@H]1C[C@H]12)C(=O)N(Cc1ccc(F)c(Cl)c1)CC3

>  <fraction unbound>
0.025

$$$$
>  <molecule>
O=C1c2c(c3n(c(=O)c2O)[C@@H](C2CC2)N(C2CC2)C3=O)CCN1Cc1ccc(F)c(Cl)c1

>  <fraction unbound>
0.024

$$$$

Now consider a different molecule.
Prompt line: So what's the measured fraction unbound for this one? O=C1c2c(c3n(c(=O)c2O)C2(CCC4CC42)N(CCN2C(=O)CCC2=O)C3=O)CCN1Cc1ccc(F)c(Cl)c1 (centres undefined)
Response line: 0.058

---

Below, each entry is listed alongside its reported solubility.
Experiment: Aqueous solubility of the compound at pH 7
Type: physicochemical
Entry rule: numbers only, all in µM.

Prompt line: So what's the measured solubility for this one? CCC(O)CN1C(=O)c2c3c(c(O)c(=O)n2C12CCC1CC12)C(=O)N(Cc1ccc(F)c(Cl)c1)CC3 (stereo not drawn)
Response line: 54

---

System: Human immunodeficiency virus 1
Experiment: Inhibition of HIV-1 integrase strand transfer activity assessed as reduction in viral replication in presence of 50% normal human serum
Each record's class is read off its IP using these ranges: A: < 60 nM; B: ≥ 60 nM and < 500 nM; C: ≥ 500 nM

Example entries and their recorded answers appear below.
>  <molecule>
N#Cc1cccc2c1[C@@]1(CC2)NC(=O)c2c3c(c(O)c(=O)n21)C(=O)N(Cc1ccc(F)c(Cl)c1)CC3

>  <tested_on>
Human immunodeficiency virus 1

>  <category_label>
C

$$$$
>  <molecule>
Cc1cccc2c1CCC21NC(=O)c2c3c(c(O)c(=O)n21)C(=O)N(Cc1ccc(F)c(Cl)c1)CC3 (racemic)

>  <tested_on>
Human immunodeficiency virus 1

>  <category_label>
C

$$$$
>  <molecule>
O=C1c2c(c3n(c(=O)c2O)C2(CCC4CC42)N(CCN2C(=O)CCC2=O)C3=O)CCN1Cc1ccc(F)c(Cl)c1 (stereo not given)

>  <tested_on>
Human immunodeficiency virus 1

>  <category_label>
A

$$$$
>  <molecule>
COc1nccc2c1C1(CC2)NC(=O)c2c3c(c(O)c(=O)n21)C(=O)N(Cc1ccc(F)c(Cl)c1)CC3 (racemic)

>  <tested_on>
Human immunodeficiency virus 1

>  <category_label>
C

$$$$
>  <molecule>
C[C@H](O)CN1C(=O)c2c3c(c(O)c(=O)n2[C@@]12CC[C@H]1C[C@H]12)C(=O)N(Cc1ccc(F)c(Cl)c1)CC3

>  <tested_on>
Human immunodeficiency virus 1

>  <category_label>
A

$$$$

Prompt line: For O=C1NC2(CCCC2)n2c1c1c(c(O)c2=O)C(=O)N(Cc2ccc(F)c(Cl)c2)CC1 , which IP bin applies?
Response line: C

Prompt line: For O=C1c2c(c3n(c(=O)c2O)C2(CCC4CC42)N(CC2CCOCC2)C3=O)CCN1Cc1ccc(F)c(Cl)c1 (racemic) , which IP bin applies?
Response line: B

Prompt line: For O=C1c2c(c3n(c(=O)c2O)[C@@H](C2CC2)N(C2CC2)C3=O)CCN1Cc1ccc(F)c(Cl)c1 , which IP bin applies?
Response line: C

Prompt line: For CCC(O)CN1C(=O)c2c3c(c(O)c(=O)n2C12CCC1CC12)C(=O)N(Cc1ccc(F)c(Cl)c1)CC3 (stereo not given) , which IP bin applies?
Response line: B

Prompt line: For CN1CCN(CCN2C(=O)c3c4c(c(O)c(=O)n3C23CCC2CC23)C(=O)N(Cc2ccc(F)c(Cl)c2)CC4)S1(=O)=O (stereo not given) , which IP bin applies?
Response line: B

Prompt line: For O=C1NC(C2CCCC2)n2c1c1c(c(O)c2=O)C(=O)N(Cc2ccc(F)c(Cl)c2)CC1 (racemic) , which IP bin applies?
Response line: C

Prompt line: For O=C(CN1C(=O)c2c3c(c(O)c(=O)n2C12CCC1CC12)C(=O)N(Cc1ccc(F)c(Cl)c1)CC3)N1CCOCC1 (stereo not given) , which IP bin applies?
Response line: B

Prompt line: For C[C@@H](O)CN1C(=O)c2c3c(c(O)c(=O)n2[C@@]12CC[C@H]1C[C@H]12)C(=O)N(Cc1ccc(F)c(Cl)c1)CC3 , which IP bin applies?
Response line: A

Prompt line: For CO[C@@H](C)CN1C(=O)c2c3c(c(O)c(=O)n2C12CCC1CC12)C(=O)N(Cc1ccc(F)c(Cl)c1)CC3 (stereo not given in full) , which IP bin applies?
Response line: B

Prompt line: For CN1CC(=O)N(CCN2C(=O)c3c4c(c(O)c(=O)n3C23CCC2CC23)C(=O)N(Cc2ccc(F)c(Cl)c2)CC4)C1=O (stereo not given) , which IP bin applies?
Response line: A
